# credit: patent US20110250130A1

Catalogue of koff readings, one per entry.
target: T1, Recombinant Human TNF-α/TNFSF1A (human, UniProt P01375 77-233); assay: SPR (Biacore), antibody captured, TNF-α in solution
T1 construct: Bought reagent (R&D Systems 210-TA); also called hTNF-α; huTNF-α
T1 sequence (P01375 77-233 limits assumed): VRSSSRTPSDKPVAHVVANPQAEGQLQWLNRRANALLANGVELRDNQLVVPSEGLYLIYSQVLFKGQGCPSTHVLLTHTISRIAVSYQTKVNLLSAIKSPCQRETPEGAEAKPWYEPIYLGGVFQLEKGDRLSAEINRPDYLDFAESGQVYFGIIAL
Write it as a number; the unit s⁻¹ goes unstated.

AB245 (antibody, V domains shown, also called hMAK195VH.1a / hMAK195VL.1a) VH: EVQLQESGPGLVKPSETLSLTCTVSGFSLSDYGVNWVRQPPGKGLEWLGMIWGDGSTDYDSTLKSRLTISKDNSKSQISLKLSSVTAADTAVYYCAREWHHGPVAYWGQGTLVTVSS VL: DIQMTQSPSSLSASVGDRVTITCKASQAVSSAVAWYQQKPGKSPKLLIYWASTRHTGVPSRFSGSGSGTDFTLTISSLQPEDFATYYCQQHYSTPFTFGQGTKLEIK
0.00033
AB242 (antibody, V domains shown, also called hMAK195VH.1 / hMAK195VL.2) VH: EVQLQESGPGLVKPSETLSLTCTVSGGSISDYGVNWIRQPPGKGLEWIGMIWGDGSTDYDSTLKSRVTISVDTSKNQFSLKLSSVTAADTAVYYCAREWHHGPVAYWGQGTLVTVSS VL: EIVMTQSPATLSLSPGERATLSCKASQAVSSAVAWYQQKPGQAPRLLIYWASTRHTGIPARFSGSGSGTDFTLTISSLQPEDFAVYYCQQHYSTPFTFGQGTKLEIK
0.00142

Value of koff reported for the binder AB250 (antibody, V domains shown, also called hMAK195VH.1b / hMAK195VL.2) VH: EVQLQESGPGLVKPSETLSLTCTVSGFSLSDYGVNWIRQPPGKGLEWIGMIWGDGSTDYDSTLKSRVTISKDTSKNQFSLKLSSVTAADTAVYYCAREWHHGPVAYWGQGTLVTVSS VL: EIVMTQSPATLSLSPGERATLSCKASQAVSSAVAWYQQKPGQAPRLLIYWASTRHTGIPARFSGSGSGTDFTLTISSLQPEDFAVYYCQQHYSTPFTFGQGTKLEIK is 0.000356
